Where these numbers come from: patent EP4050002A1

method.notes: Plasma protein binding (rapid equilibrium dialysis)
Format: in vitro ADME
cond: Rat plasma; read-out: % Bound in Plasma ± SD (converted)
measure.name: fraction unbound at 5 h, 10 µM

Tell me the measured fraction unbound at 5 h, 10 µM of CCCCc1cn(-c2ccc(-c3nnc(-c4ccccc4C(F)(F)F)o3)cc2)nn1 , please.
0.0005

###

Tested on: MDAMB231 cell line
method.notes: Cytotoxicity, cell count method
Assay type: cell-based, human
cond: MDAMB231, 72 hours of incubation
measure.name: pIC50
Quick note: pIC50 values are minus log10 of concentrations in mol/L.

Tell me the measured pIC50 of CCCCc1cn(-c2ccc(-c3nnc(-c4ccccc4)o3)cc2)nn1 [Compound 3] , please.
5.22

###

method.notes: Pharmacokinetic studies, single administration
Assay type: in vivo, male Swiss albino mice
cond: mouse, in vivo, ip; intraperitoneal route; read-out: absolute bioavailability (F)
measure.name: bioavailability

Tell me the measured bioavailability of CCCCc1cn(-c2ccc(-c3nnc(-c4ccccc4C(F)(F)F)o3)cc2)nn1 [Compound 5] , please.
> 100%

###

method.notes: Pharmacokinetic studies, single administration
Format: in vivo, male Swiss albino mice
cond: mouse, plasma, iv; I.V., 1 mg/kg; read-out: MRT0-last
Procedure: The pharmacokinetic study was performed in male Swiss albino mice from Hylasco Biotechnology Pvt. Ltd. (A Charles River technology Licensee). The tissue distribution study was performed in male Swiss albino mice and in male FOXN1^nu/nu nude mice (Envigo spa). The efficacy study was performed in male FOXN1^nu/nu nude mice. Single intravenous administration studies were done as follows: • 1. […]
measure.name: MRT last (h)
Give your result in h as a bare value.

Tell me the measured MRT last of CCCCc1cn(-c2ccc(-c3nnc(-c4ccccc4C(F)(F)F)o3)cc2)nn1 [Compound 5] , please.
1.09

###

method.notes: Pharmacokinetic studies, single administration
Type: in vivo, male Swiss albino mice
cond: mouse, plasma; I.T., 0.08 mg/kg
measure.name: Cmax (µg/mL)
Give your result in µg/mL as a bare value.

Tell me the measured Cmax of CCCCc1cn(-c2ccc(-c3nnc(-c4ccccc4C(F)(F)F)o3)cc2)nn1 [Compound 5] , please.
1.95

###

method.notes: Pharmacokinetic studies, single administration
Assay type: in vivo, male Swiss albino mice
cond: mouse, plasma, po; P.O., 45 mg/kg
measure.name: AUC(0-t) (ng·h/mL)
Give your result in ng·h/mL as a bare value.

Tell me the measured AUC(0-t) of CCCCc1cn(-c2ccc(-c3nnc(-c4ccccc4C(F)(F)F)o3)cc2)nn1 , please.
14800

###

experimental.system: CYP2D6 (Homo sapiens)
Sequence (P10635 whole entry): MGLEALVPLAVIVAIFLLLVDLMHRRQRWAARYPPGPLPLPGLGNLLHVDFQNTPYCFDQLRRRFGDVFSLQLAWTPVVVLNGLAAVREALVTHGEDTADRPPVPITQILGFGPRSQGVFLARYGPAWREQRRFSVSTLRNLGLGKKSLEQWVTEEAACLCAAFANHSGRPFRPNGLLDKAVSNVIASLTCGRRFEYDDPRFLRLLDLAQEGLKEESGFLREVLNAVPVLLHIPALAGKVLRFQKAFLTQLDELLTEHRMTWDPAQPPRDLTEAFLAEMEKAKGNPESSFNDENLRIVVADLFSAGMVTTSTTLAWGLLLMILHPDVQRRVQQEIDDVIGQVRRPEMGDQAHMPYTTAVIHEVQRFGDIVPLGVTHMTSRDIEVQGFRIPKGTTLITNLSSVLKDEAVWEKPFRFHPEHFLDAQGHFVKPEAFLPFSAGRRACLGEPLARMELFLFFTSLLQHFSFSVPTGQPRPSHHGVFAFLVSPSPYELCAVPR
pIC50: −log10 of the molar value.
measure.name: pIC50

What reported pIC50 corresponds to CCCCc1cn(-c2ccc(-c3nnc(-c4ccccc4C(F)(F)F)o3)cc2)nn1 [Compound 5] on CYP2D6 (Homo sapiens)?
< 4.52

###

experimental.system: CYP2C9 (Homo sapiens, UniProt P11712)
Sequence (P11712 whole entry): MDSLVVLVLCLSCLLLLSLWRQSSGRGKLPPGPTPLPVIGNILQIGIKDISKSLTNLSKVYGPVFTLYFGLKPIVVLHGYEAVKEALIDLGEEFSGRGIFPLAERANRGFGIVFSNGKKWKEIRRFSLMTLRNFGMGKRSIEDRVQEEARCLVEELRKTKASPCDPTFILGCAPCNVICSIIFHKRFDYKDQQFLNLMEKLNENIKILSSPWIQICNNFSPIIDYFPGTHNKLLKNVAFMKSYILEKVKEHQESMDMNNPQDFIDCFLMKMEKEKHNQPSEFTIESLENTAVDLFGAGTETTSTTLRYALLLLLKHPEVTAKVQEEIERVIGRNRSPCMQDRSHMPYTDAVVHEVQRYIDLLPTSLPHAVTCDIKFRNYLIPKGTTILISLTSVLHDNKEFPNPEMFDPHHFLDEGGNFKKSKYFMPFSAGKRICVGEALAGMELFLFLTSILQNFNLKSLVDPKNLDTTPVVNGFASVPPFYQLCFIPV
pIC50: −log10 of the molar value.
measure.name: pIC50

What reported pIC50 corresponds to CCCCc1cn(-c2ccc(-c3nnc(-c4ccccc4C(F)(F)F)o3)cc2)nn1 on CYP2C9 (Homo sapiens, UniProt P11712)?
< 4.52

###

method.notes: Plasma protein binding (rapid equilibrium dialysis)
Assay type: in vitro ADME
cond: Human plasma; read-out: % Recovery ± SD
measure.name: recovery at 5 h, 10 µM (%)
Give your result in % as a bare value.

Tell me the measured recovery at 5 h, 10 µM of CCCCc1cn(-c2ccc(-c3nnc(-c4ccccc4C(F)(F)F)o3)cc2)nn1 [Compound 5] , please.
79

###

Measured solubility at 2 h accompanies every entry in the list below.
method.notes: Kinetic solubility (turbidimetry)
Type: physicochemical
cond: 37 °C, pH 7.4, aqueous buffer, kinetic from dmso stock
Procedure: Kinetic solubility was assessed in phosphate buffered saline at pH 7.4 according to the turbidimetry method. Turbidity (precipitation) was measured by absorbance at 620 nm following incubation at 37°C for 2 h. […] Solubility was estimated from the concentration of tested compound that produced a significant increase in absorbance (≥ 0.003 OD at 620 nm) above vehicle control (1% DMSO in water). […]

COC(=O)[C@H]1[C@H]2C[C@@H]3c4[nH]c5cc(OC)ccc5c4CCN3C[C@H]2C[C@@H](OC(=O)c2cc(OC)c(OC)c(OC)c2)[C@@H]1OC [Reserpine]: 30 to 100 µM

Okay, next one:
Tell me the measured solubility at 2 h of Clc1ccc(COC(Cn2ccnc2)c2ccc(Cl)cc2Cl)c(Cl)c1 (centres unmarked) [Miconazole] , please.
10 to 30 µM

###

Measured pIC50 accompanies every entry in the list below.
System: MDAMB231 cell line
method.notes: Cytotoxicity, cell count method
Type: cell-based, human
cond: Homo sapiens, MDA-MB-231, 72 h, MDAMB231, 72 hours of incubation
Quick note: pIC50 values are minus log10 of concentrations in mol/L.

CCCCc1cn(-c2ccc(-c3nnc(-c4ccccc4)o3)cc2)nn1: 5.09
CCCCc1cn(-c2ccc(-c3nnc(-c4ccccc4F)o3)cc2)nn1: 4.37
CCCCc1cn(-c2ccc(-c3nnc(-c4ccccc4OC(F)F)o3)cc2)nn1: 3.00
CCCCc1cn(-c2ccc(-c3nnc(-c4ccccc4C)o3)cc2)nn1: 4.41
CCCCc1cn(-c2ccc(-c3nnc(-c4cccc5cnccc45)o3)cc2)nn1: 3.67
CCCCc1noc(-c2ccc(-c3nnc(-c4cccc(Cl)c4F)o3)cc2)n1: 3.00

Okay, next one:
Tell me the measured pIC50 of CCCCc1cn(-c2ccc(-c3nnc(-c4cc(C(C)C)ccc4C)o3)cc2)nn1 , please.
4.46

###

method.notes: Tissue distribution after single I.P. administration
Assay type: in vivo, male Swiss Albino Mice
cond: mouse, brain, ip; 4 hours after single administration I.P. 45 mg/Kg; read-out: Brain to plasma
measure.name: Kp at 4 h
Keep it simple and answer with nothing but the number.

Tell me the measured Kp at 4 h of CCCCc1cn(-c2ccc(-c3nnc(-c4ccccc4C(F)(F)F)o3)cc2)nn1 , please.
2.4

###

method.notes: Pharmacokinetic studies, single administration
Type: in vivo, male Swiss albino mice
cond: mouse, plasma, ip; I.P. 1, 45 mg/kg, TWEEN-based vehicle
measure.name: AUC(0-t) (ng·h/mL)
Give your result in ng·h/mL as a bare value.

Tell me the measured AUC(0-t) of CCCCc1cn(-c2ccc(-c3nnc(-c4ccccc4C(F)(F)F)o3)cc2)nn1 [Compound 5] , please.
21800

###

method.notes: Pharmacokinetic studies, single administration
Type: in vivo, male Swiss albino mice
cond: mouse, plasma, ip; I.P. 1, 45 mg/kg, TWEEN-based vehicle; read-out: MRT0-last
measure.name: MRT last (h)
Give your result in h as a bare value.

Tell me the measured MRT last of CCCCc1cn(-c2ccc(-c3nnc(-c4ccccc4C(F)(F)F)o3)cc2)nn1 [Compound 5] , please.
7.46

###

System: HUH7 cell line
method.notes: Cytotoxicity, cell count method
Assay type: cell-based
cond: Homo sapiens, Huh-7, HUH7, 72 hours of incubation
measure.name: IC50

Tell me the measured IC50 of CCCCc1cn(-c2ccc(-c3nnc(-c4ccccc4C(F)(F)F)o3)cc2)nn1 [Compound 5] , please.
3.28 µM

###

method.notes: Plasma protein binding (rapid equilibrium dialysis)
Type: in vitro ADME
cond: Mouse plasma; read-out: % Bound in Plasma ± SD (converted)
measure.name: fraction unbound at 5 h, 10 µM

Tell me the measured fraction unbound at 5 h, 10 µM of CCCCc1cn(-c2ccc(-c3nnc(-c4ccccc4C(F)(F)F)o3)cc2)nn1 [Compound 5] , please.
0.0003

###

method.notes: Pharmacokinetic studies, single administration
Type: in vivo, male Swiss albino mice
cond: mouse, plasma; I.T., 0.08 mg/kg
measure.name: AUC(0-inf) (ng·h/mL)
Give your result in ng·h/mL as a bare value.

Tell me the measured AUC(0-inf) of CCCCc1cn(-c2ccc(-c3nnc(-c4ccccc4C(F)(F)F)o3)cc2)nn1 , please.
815

###

Test system: A549
method.notes: Cytotoxicity, cell count method
Type: cell-based
cond: Homo sapiens, A549, 72 hours of incubation
measure.name: pIC50
Quick note: pIC50 values are minus log10 of concentrations in mol/L.

Tell me the measured pIC50 of CCCCc1cn(-c2ccc(-c3nnc(-c4ccccc4C(F)(F)F)o3)cc2)nn1 [Compound 5] , please.
6.46

###

Tested on: MDAMB231 cell line
method.notes: Cytotoxicity, cell count method
Type: cell-based, human
cond: Homo sapiens, MDA-MB-231, MDAMB231, 72 hours of incubation
measure.name: pIC50
Quick note: pIC50 values are minus log10 of concentrations in mol/L.

Tell me the measured pIC50 of CCCCc1cn(-c2ccc(-c3nnc(-c4ccccc4C(F)(F)F)o3)cc2)nn1 , please.
6.24

###

method.notes: Pharmacokinetic studies, single administration
Type: in vivo, male Swiss albino mice
cond: mouse, plasma, ip; I.P. 2, 10 mg/kg, Solutol-based vehicle; read-out: MRT0-last
measure.name: MRT last (h)
Give your result in h as a bare value.

Tell me the measured MRT last of CCCCc1cn(-c2ccc(-c3nnc(-c4ccccc4C(F)(F)F)o3)cc2)nn1 , please.
6.49
